# TGT: EGFR-wt (Homo sapiens, UniProt P00533)
# Sequence (P00533 25-1210): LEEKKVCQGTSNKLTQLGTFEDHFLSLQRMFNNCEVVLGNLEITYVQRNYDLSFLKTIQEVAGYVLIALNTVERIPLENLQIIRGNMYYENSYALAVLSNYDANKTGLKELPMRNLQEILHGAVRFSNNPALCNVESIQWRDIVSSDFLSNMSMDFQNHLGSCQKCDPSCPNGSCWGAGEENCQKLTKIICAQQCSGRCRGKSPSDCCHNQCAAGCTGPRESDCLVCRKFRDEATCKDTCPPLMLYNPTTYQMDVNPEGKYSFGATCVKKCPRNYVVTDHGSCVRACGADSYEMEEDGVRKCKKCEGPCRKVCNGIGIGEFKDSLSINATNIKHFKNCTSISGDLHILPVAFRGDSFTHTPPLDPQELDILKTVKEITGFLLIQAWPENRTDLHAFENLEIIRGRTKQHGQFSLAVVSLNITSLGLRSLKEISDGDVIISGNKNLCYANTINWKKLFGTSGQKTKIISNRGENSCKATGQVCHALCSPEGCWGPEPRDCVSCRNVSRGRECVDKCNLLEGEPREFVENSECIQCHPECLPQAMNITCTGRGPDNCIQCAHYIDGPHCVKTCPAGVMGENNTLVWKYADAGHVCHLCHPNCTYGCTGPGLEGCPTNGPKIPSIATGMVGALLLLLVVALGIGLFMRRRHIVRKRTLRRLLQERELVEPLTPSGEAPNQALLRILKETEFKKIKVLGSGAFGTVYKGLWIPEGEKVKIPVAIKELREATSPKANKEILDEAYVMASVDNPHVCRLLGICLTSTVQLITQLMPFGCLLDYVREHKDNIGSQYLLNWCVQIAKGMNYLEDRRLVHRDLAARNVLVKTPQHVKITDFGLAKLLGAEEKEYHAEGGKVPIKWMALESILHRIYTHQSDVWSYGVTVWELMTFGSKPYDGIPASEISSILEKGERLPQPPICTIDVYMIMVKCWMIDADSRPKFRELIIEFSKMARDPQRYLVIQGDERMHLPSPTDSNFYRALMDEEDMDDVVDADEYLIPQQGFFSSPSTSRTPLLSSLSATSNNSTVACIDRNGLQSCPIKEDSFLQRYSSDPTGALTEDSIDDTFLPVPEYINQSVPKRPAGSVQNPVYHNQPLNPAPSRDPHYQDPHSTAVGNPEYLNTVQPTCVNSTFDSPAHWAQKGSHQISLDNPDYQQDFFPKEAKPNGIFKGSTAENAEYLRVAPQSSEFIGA
# METHOD NOTES: HTRF KinEASE-TK activity-based assay, EGFR-wt
# STATED CONDITIONS: EGFR HTRF IC50 wt, ATP at Km (9.5 µM), 30 min preincubation; mean ± SD of three independent measurements in duplicates
Binarize IC50 at 0.4 nM; below is 1.0, at or above is 0.0.

Worked examples, 2 molecules total:
C=CC(=O)Nc1cccc(-c2c(-c3ccc(N4CCN(C)CC4)cc3)[nH]c3nc[nH]c(=O)c23)c1 [Compound 19i]: 0.0
C=CC(=O)Nc1cccc(-c2c(-c3ccc(N4CCN(C)CC4)cc3)[nH]c3ncnc(OC4CCCC4)c23)c1 [Compound 19f]: 1.0

[Q] # strict comparison: is reported IC50 < 0.4 nM? input = C=CC(=O)Nc1cccc(-c2c(-c3ccc(N4CCN(C)CC4)cc3)[nH]c3ncnc(OCCCSC)c23)c1 [Compound 19e]
[A] 1.0

[Q] Now consider C=CC(=O)Nc1cccc(-c2c(-c3ccc(N4CCN(C)CC4)cc3)[nH]c3ncnc(OCC(C)C)c23)c1 [Compound 19h] .
[A] 1.0

[Q] Now consider CCC(=O)Nc1cccc(-c2c(-c3ccccc3)[nH]c3ncnc(OC)c23)c1 .
[A] 0.0

[Q] Now consider C=CC(=O)Nc1cccc(-c2c(-c3ccc(N4CCN(C)CC4)cc3)[nH]c3ncn(CCCC)c(=O)c23)c1 [Compound 29d] .
[A] 1.0

[Q] Now consider COc1ncnc2[nH]c(-c3ccc(C)cc3)c(-c3cccc(NC(=O)C=CCN4CCCCC4)c3)c12 [Compound 10c] .
[A] 0.0

[Q] Now consider C=CC(=O)Nc1cccc(-c2c(-c3ccc(N4CCN(C)CC4)cc3)[nH]c3ncnc(OC(C)C)c23)c1 [Compound 19g] .
[A] 1.0

----------
# METHOD NOTES: In vivo pharmacokinetics in mice
# STATED CONDITIONS: male, RjOrl:SWISS (CD1), mouse, plasma, PO 20 mg kg-1
TEST READOUT: AUC(0-t) (ng·h/mL)
Numbers only, in ng·h/mL.

[Q] Reported AUC(0-t), molecule C=CC(=O)Nc1cccc(-c2c(-c3ccc(N4CCN(C)CC4)cc3)[nH]c3ncnc(OCC(C)C)c23)c1 [Compound 19h] : ____
[A] 101

----------
# METHOD NOTES: In vivo pharmacokinetics in mice
# STATED CONDITIONS: male, RjOrl:SWISS (CD1), mouse, plasma, IV 2 mg kg-1, read-out: Vss
TEST READOUT: Vd (L/kg)
One number for each entry, in L/kg.

[Q] Reported Vd, compound C=CC(=O)Nc1cccc(-c2c(-c3ccc(N4CCN(C)CC4)cc3)[nH]c3ncnc(OCC(C)C)c23)c1 [Compound 19h] : ____
[A] 16

----------
# METHOD NOTES: In vivo pharmacokinetics in mice
# STATED CONDITIONS: male, RjOrl:SWISS (CD1), mouse, plasma, IV 2 mg kg-1
TEST READOUT: C0 (µg/mL)
Answers are plain numbers, in µg/mL.

[Q] Reported C0, molecule C=CC(=O)Nc1cccc(-c2c(-c3ccc(N4CCN(C)CC4)cc3)[nH]c3ncnc(OCC(C)C)c23)c1 [Compound 19h] : ____
[A] 0.258

Entry source: paper PMC6886544
